Biological target: AtETR1^1–307 (TM–GAF) (Arabidopsis thaliana)
Construct: made in house; host or cells: E. coli C43 (DE3)
Sequence (P49333 1-307): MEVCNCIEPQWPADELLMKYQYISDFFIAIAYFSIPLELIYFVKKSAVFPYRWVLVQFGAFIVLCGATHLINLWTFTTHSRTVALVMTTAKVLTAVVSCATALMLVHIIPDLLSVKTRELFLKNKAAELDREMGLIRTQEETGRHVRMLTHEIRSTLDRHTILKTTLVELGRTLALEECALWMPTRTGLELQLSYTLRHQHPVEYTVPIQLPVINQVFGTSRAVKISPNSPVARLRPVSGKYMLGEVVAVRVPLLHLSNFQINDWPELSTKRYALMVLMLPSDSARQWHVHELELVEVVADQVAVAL
Assay: biochemical
Type: binding
No end group written: not given here.
readout-label: pKd
pKd here: minus log base 10 of the concentration, concentration in moles per litre.

GET /value?item= KDVEMAISSRKGRTGTAAGDVAFPKGKENLASVLKRYKRRL-NH2 [N41P] &field=pKd returns 7.52
